assay: BET inhibitor-based combinations targeting novel dependencies in MECOM-rearranged (r) AML: UCSD-AML1 cell line (AID 2202235); conditions: UCSD-AML1 AML cells viability, CellTiter-Glo, 48 h; series mostly up to 46 µM; also: nearly all actives have a fitted effect of over 40% in size
Inconclusive results are not listed. Calls of active or inactive are those of the source. Calls follow the shape of the dose curve; as a rule, active = well fitted inhibition curve with a large enough effect; inconclusive = small, poorly fitted or top-dose-only effect; inactive = no such curve, though single readings can be large or run the other way.
Thanks in advance; please answer with one of these: 1 (active), 0 (inactive)

compound=CC(=O)SC[C@@H](C)C(=O)N1CCC[C@H]1C(=O)N[C@@H](Cc1ccccc1)C(=O)O class=0
compound=NC(=O)c1ncn([C@@H]2O[C@H](CO)[C@@H](O)[C@H]2O)n1 class=1
compound=CCOC(=O)c1c(C)n(C)c2ccc(O)cc12 class=0
compound=CNC(=O)c1cc(Oc2ccc(NC(=O)Nc3ccc(Cl)c(C(F)(F)F)c3)cc2)ccn1 class=1
compound=Nc1nc(N)c(N=O)c(OCC2CCCCC2)n1 class=1

In this assay, the call recorded for `CC(C)Cn1cnc2c(N)nc3ccccc3c21` was what?
0

// same read-out, input: CC(=O)SCC(Cc1ccccc1)C(=O)NCC(=O)OCc1ccccc1 (stereo unspecified)
0

// same read-out, input: CS(=O)(=O)N(Cc1ccco1)CC(O)Cn1c2ccccc2c2ccccc21 (stereo unspecified)
0

* * *

Answer each item with its documented activation.
molecular target: Cellular tumor antigen p53 (Homo sapiens) (UniProt P04637); assay: Primary qHTS for small molecule compounds that upregulate eGFP-tagged delta133p53alpha (in N-terminal) cells. (AID 2060322); conditions: NCI-H358 eGFP-delta133p53alpha fluorescence, 24 h; hits give high values;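 also: cells pre-induced with doxycycline then dosed without doxycycline; 0% = DMSO vehicle and 100% = reference activator; nearly all actives have a fitted effect of over 75% in size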
Sequence (P04637 whole entry, looked up): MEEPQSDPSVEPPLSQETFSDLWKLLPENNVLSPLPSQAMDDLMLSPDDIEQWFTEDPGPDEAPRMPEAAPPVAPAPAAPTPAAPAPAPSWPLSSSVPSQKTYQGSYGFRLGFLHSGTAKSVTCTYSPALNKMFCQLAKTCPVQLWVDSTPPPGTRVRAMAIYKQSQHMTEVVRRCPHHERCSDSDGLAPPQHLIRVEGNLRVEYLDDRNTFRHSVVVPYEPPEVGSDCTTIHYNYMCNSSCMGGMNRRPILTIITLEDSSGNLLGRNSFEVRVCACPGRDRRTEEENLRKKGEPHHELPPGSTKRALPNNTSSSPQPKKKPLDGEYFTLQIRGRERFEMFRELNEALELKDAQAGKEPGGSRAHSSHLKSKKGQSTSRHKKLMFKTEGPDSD
Results filed as inconclusive are left out.
Answers are plain numbers, in %.

// solved cases for activation follow
compound=O=C(CSc1nc2ccccc2c(=O)n1-c1ccccc1)Nc1ccc2c(c1)CCC2 measuredattribute=activation unittag=% observedmeasurement=5.67
compound=O=C(/C=C/c1ccccc1)O[C@@H]1[C@@H](CO)O[C@@](CO)(O[C@H]2O[C@H](CO)[C@@H](O)[C@H](O)[C@H]2O)[C@H]1O measuredattribute=activation unittag=% observedmeasurement=-26
compound=COc1cc2c(cc1OC)CN(C(=O)[C@@H](NCc1ccncc1)C(C)(C)C)CC2 measuredattribute=activation unittag=% observedmeasurement=5.25
compound=COc1ccc(-n2c(=O)[nH]c3cc(C(=O)NCc4ccc(Cl)cc4)sc3c2=O)nc1OC measuredattribute=activation unittag=% observedmeasurement=-16.1
compound=Cc1ccc(C(C)C)c(O[C@@H]2O[C@H](CO)[C@@H](O)[C@H](O)[C@H]2O)c1 measuredattribute=activation unittag=% observedmeasurement=-1.53
compound="C/C=C\\NC(=O)C1NC(=O)C(CC(N)=O)NC(=O)C(NC(=O)C(=O)C(C)CC)Cc2ccc(O)c(c2)-c2cccc3c2NC(=O)C3(O)C1O (stereo not drawn)" measuredattribute=activation unittag=% observedmeasurement=3.82
compound="CC(O)CO[C@@H]1O[C@H](CO)[C@@H](O)[C@H](O)[C@H]1O (stereo partly drawn)" measuredattribute=activation unittag=% observedmeasurement=-4.58

Let's switch to this compound now.
// lookup activation | system=Cellular tumor antigen p53 (Homo sapiens) (UniProt P04637) | key= `CC1(C)CCC[C@@]2(C)[C@@H]1CC[C@@]1(C)OC(=O)C[C@H]21`
-11.9

* * *

test: BET inhibitor-based combinations targeting novel dependencies in MECOM-rearranged (r) AML: AML-191 cell line (AID 2202236; also: nearly all actives have a fitted effect of over 35% in size; also: potency is read from the fitted curve at half-maximal effect); settings: AML-191 viability, CellTiter-Glo luminescence, 48 h; series mostly up to 46 µM
Results filed as inconclusive are left out. The source made the active and inactive calls. Calls come from the whole dose curve; as a rule, active = well fitted inhibition curve with a large enough effect; inconclusive = small, poorly fitted or top-dose-only effect; inactive = flat fitted curve, though single readings scatter.
measuredAttribute: Potency

// solved cases for Potency follow
compound=C=C1C[C@@]2(O)O[C@@]3(C[C@H]2C(C)C)[C@@H](C)CC[C@@H]13 measuredattribute=Potency observedmeasurement=inactive
compound=CCCOc1ccc(C(=O)OCCN(CC)CC)cc1N measuredattribute=Potency observedmeasurement=inactive
compound="CN1C2CCC1CC(OC(=O)C(CO)c1ccccc1)C2 (stereo unspecified)" measuredattribute=Potency observedmeasurement=inactive
compound=CNC(=O)[C@H](Cc1ccccc1)NC(=O)[C@H](CC(C)C)[C@H](CSc1cccs1)C(=O)NO measuredattribute=Potency observedmeasurement="13200 nM (active)"
compound=CCNC(=O)c1cc2c(-c3cc(OCCN4CCCC4)c(Cl)cc3Cl)nc(N)nc2s1 measuredattribute=Potency observedmeasurement="1820 nM (active)"

For each of the compounds below, state Potency.
1. O=C(O)c1cccc(-c2noc(-c3ccccc3F)n2)c1
2. C[C@@H](Oc1cc(-c2cnn(C3CCNCC3)c2)cnc1N)c1c(Cl)ccc(F)c1Cl
3. Clc1cccc(-n2nnnc2NCc2ccccc2Oc2ccccn2)c1Cl

1: 20900 nM (active); 2: 1180 nM (active); 3: inactive

For each of the compounds below, state Potency.
1. Cc1ccc(S(=O)(=O)Nc2nc3ccccc3nc2Nc2ccc3nsnc3c2)cc1
2. O=C(O)c1ccc2cc(-c3ccc(O)c(C45CC6CC(CC(C6)C4)C5)c3)ccc2c1

1. inactive
2. 934 nM (active)

For each of the compounds below, state Potency.
1. Cc1nn(Cc2ccccc2Cl)c(C)c1CN(C)CC(O)COc1ccc(Cl)cc1 (stereo unspecified)
2. CCC[C@H](N[C@@H](C)C(=O)N1[C@@H]2CCCC[C@H]2C[C@H]1C(=O)O)C(=O)OCC
3. CCCCOc1ccc(C(=O)Nc2ccc(F)cc2F)cc1
4. COc1cccc(-c2cc(F)ccc2C2Cc3nc(N)nc(C)c3C(=O)N2)n1 (stereo unspecified)
5. CS(=O)(=O)Nc1ccc([N+](=O)[O-])cc1Oc1ccccc1
6. NC(=O)c1cnccn1
7. O=c1c(O)c(-c2ccc(O)c(O)c2)oc2cc(O)cc(O)c12
8. CC[N+](CC)(CC)CCOc1cccc(OCC[N+](CC)(CC)CC)c1OCC[N+](CC)(CC)CC

["23500 nM (active)", "inactive", "inactive", "93.4 nM (active)", "inactive", "inactive", "inactive", "inactive"]

For each of the compounds below, state Potency.
1. COC(=O)c1ccc2c(C(=Nc3ccc(N(C)C(=O)CN4CCN(C)CC4)cc3)c3ccccc3)c(O)[nH]c2c1
2. Cc1nc([C@](C)(O)CO)sc1-c1cnc(N)c(O[C@H](C)c2cc(F)ccc2-n2nccn2)c1
3. CC(C)Cc1ccc(C(C)C(=O)O)cc1 (stereo unspecified)

1. 5250 nM (active)
2. 833 nM (active)
3. inactive
